Provenance of the data: PubChem BioAssay (EPA / NIEHS)

- Test description: CEETOX_H295R_PROG: CeeTox H295R High-throughput Steroidogenesis Assay for Progesterone (PROG) (AID 2283442)
- Condition summary: actives raise or lower the signal
Calls of active or inactive are those of the source. How the source made its calls: active means hit-call score of the fitted dose curve at least 0.9, where 1 is the maximum; inactive means score below 0.9.
Response enum: true = active, false = inactive

Here's what some known entries look like.
# Compound, Label class
data = [
    ("O=S1OC[C@@H]2[C@H](CO1)[C@]1(Cl)C(Cl)=C(Cl)[C@@]2(Cl)C1(Cl)Cl (stereo partly specified)", "true"),
    ("CCC[CH2][Sn]([Cl])([Cl])[CH2]CCC", "false"),
]

query: For "Cc1cc(C(C)(C)c2ccc(O)c(C)c2)ccc1O" , which call appears in the assay record?
result: false

query: For "C[C@]12CC[C@@H](O)C[C@@H]1CC[C@@H]1[C@@H]2CC[C@]2(C)C(=O)CC[C@@H]12" , which call appears in the assay record?
result: true

query: For CC(C)=CC1C(C(=O)OCc2cccc(Oc3ccccc3)c2)C1(C)C (stereo unspecified) , which call appears in the assay record?
result: true

query: For "Cc1cc(C)cc(C)c1" , which call appears in the assay record?
result: false

query: For "CCOCn1c(-c2ccc(Cl)cc2)c(C#N)c(Br)c1C(F)(F)F" , which call appears in the assay record?
result: true

query: For "Oc1c(Cl)cc(Cl)cc1Cl" , which call appears in the assay record?
result: true
